Condition Label: in n-butanol, 298.88 K
Measured Property: solubility (mole fraction)
Number only, please.

Asked: Recorded solubility (mole fraction) of "c1ccc2c(c1)Cc1ccccc1-2" , please.
Given back: 0.0113

###

Condition Label: in ethanol, 289.01 K
Measured Property: solubility (mole fraction)
Number only, please.

Asked: Recorded solubility (mole fraction) of "c1ccc2c(c1)Cc1ccccc1-2" , please.
Given back: 0.00554

###

Condition Label: in isopropanol, 328.25 K
Measured Property: solubility (mole fraction)
Number only, please.

Asked: Recorded solubility (mole fraction) of "c1ccc2c(c1)Cc1ccccc1-2" , please.
Given back: 0.0237

###

Condition Label: in toluene, 303.17 K
Measured Property: solubility (mole fraction)

Asked: Recorded solubility (mole fraction) of "c1ccc2c(c1)Cc1ccccc1-2" , please.
Given back: 0.154

###

Condition Label: in isopropanol, 299.5 K
Measured Property: solubility (mole fraction)
Number only, please.

Asked: Recorded solubility (mole fraction) of "c1ccc2c(c1)Cc1ccccc1-2" , please.
Given back: 0.00453

###

Condition Label: in n-butanol, 333.35 K
Measured Property: solubility (mole fraction)
Number only, please.

Asked: Recorded solubility (mole fraction) of "c1ccc2c(c1)Cc1ccccc1-2" , please.
Given back: 0.0458

###

Condition Label: in isopropanol, 318.24 K
Measured Property: solubility (mole fraction)

Asked: Recorded solubility (mole fraction) of "c1ccc2c(c1)Cc1ccccc1-2" , please.
Given back: 0.0135

###

Condition Label: in toluene, 283.27 K
Measured Property: solubility (mole fraction)
Number only, please.

Asked: Recorded solubility (mole fraction) of "c1ccc2c(c1)Cc1ccccc1-2" , please.
Given back: 0.0634

###

Condition Label: in ethanol, 294.08 K
Measured Property: solubility (mole fraction)

Asked: Recorded solubility (mole fraction) of "c1ccc2c(c1)Cc1ccccc1-2" , please.
Given back: 0.00668

###

Condition Label: in ethanol, 278.98 K
Measured Property: solubility (mole fraction)
Number only, please.

Asked: Recorded solubility (mole fraction) of "c1ccc2c(c1)Cc1ccccc1-2" , please.
Given back: 0.00372

###

Condition Label: in n-butanol, 318.16 K
Measured Property: solubility (mole fraction)
Number only, please.

Asked: Recorded solubility (mole fraction) of "c1ccc2c(c1)Cc1ccccc1-2" , please.
Given back: 0.0251

###

Condition Label: in ethanol, 313.17 K
Measured Property: solubility (mole fraction)
Number only, please.

Asked: Recorded solubility (mole fraction) of "c1ccc2c(c1)Cc1ccccc1-2" , please.
Given back: 0.0139

###

Condition Label: in toluene, 319.01 K
Measured Property: solubility (mole fraction)
Number only, please.

Asked: Recorded solubility (mole fraction) of "c1ccc2c(c1)Cc1ccccc1-2" , please.
Given back: 0.308

###

Condition Label: in isopropanol, 323.17 K
Measured Property: solubility (mole fraction)

Asked: Recorded solubility (mole fraction) of "c1ccc2c(c1)Cc1ccccc1-2" , please.
Given back: 0.0179

###

Condition Label: in n-butanol, 323.16 K
Measured Property: solubility (mole fraction)
Number only, please.

Asked: Recorded solubility (mole fraction) of "c1ccc2c(c1)Cc1ccccc1-2" , please.
Given back: 0.0304

###

Condition Label: in ethanol, 303.36 K
Measured Property: solubility (mole fraction)
Number only, please.

Asked: Recorded solubility (mole fraction) of "c1ccc2c(c1)Cc1ccccc1-2" , please.
Given back: 0.00973
